// data source = patent US11485720B2

Entries annotated with measured EC50
Tested on: THP-1 cells
ASSAY: THP-1 host cell count in intramacrophage Leishmania assay
Type: cell-based
ASSAY_SETUP: Homo sapiens, host cell toxicity, read-out: THP1 pEC50 (converted)
Experimental: The intramacrophage Leishmania assay was performed as described in de Rycker et al (Antimicrob Agents Chemother, 2013 July; 57(7):2913-22. doi: 10.1128/AAC.02398-12). Briefly, 1 μl of compound was pre-dispensed into 384 well sterile intermediary plates. For single point screening, amphotericin B was added to all wells of column 24 as a positive control (final concentration 2 μM) and DMSO to column 23. […]
PARAMETER_MEASURED: EC50 (µM)

[[record]]
structure = "O=C(NCC1(O)CCCCC1)c1cc(=O)c2cc(O)cc(F)c2o1"
parameter_measured = "EC50"
relation_sign = ">"
reported_measurement = 50.1

[[record]]
structure = "O=C(NCC1(O)CCCCC1)c1cc(=O)c2cc(Cl)ccc2o1"
parameter_measured = "EC50"
relation_sign = ">"
reported_measurement = 50.1

[[record]]
structure = "O=C(NCC1CCCCC1)c1cc(=O)c2cc(F)cc(O)c2o1"
parameter_measured = "EC50"
relation_sign = "="
reported_measurement = 50.1

[[record]]
structure = "O=C(NCC1(O)CCC(F)(F)CC1)c1cc(=O)c2cc(F)ccc2o1"
parameter_measured = "EC50"
relation_sign = "="
reported_measurement = 50.1


* * *

ASSAY_SYSTEM: Plasmodium falciparum lysyl t-RNA synthetase (Pf-KRS1) (Plasmodium falciparum)
Construct: Pf KRS1-; made in house; host or cells: E. coli BL21 (DE3)
Sequence (Q8IDJ8 entry or part of it, looked up, natural form): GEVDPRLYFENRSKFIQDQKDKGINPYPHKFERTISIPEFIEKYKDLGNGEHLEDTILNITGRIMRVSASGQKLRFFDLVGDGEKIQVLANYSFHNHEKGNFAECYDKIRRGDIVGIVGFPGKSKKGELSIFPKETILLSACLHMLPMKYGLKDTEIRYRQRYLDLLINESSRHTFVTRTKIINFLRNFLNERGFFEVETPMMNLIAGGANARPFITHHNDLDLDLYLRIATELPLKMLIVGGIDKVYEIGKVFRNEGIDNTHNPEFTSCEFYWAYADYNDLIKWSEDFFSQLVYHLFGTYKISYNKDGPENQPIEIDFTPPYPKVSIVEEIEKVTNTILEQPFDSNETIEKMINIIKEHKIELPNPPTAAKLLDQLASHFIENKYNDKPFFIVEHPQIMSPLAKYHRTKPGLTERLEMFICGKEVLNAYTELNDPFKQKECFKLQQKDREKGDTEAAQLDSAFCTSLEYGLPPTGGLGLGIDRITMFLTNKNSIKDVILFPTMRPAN
ASSAY: Pf-KRS1 inhibition biochemical assay (Kinase-Glo, ATP depletion)
ASSAY_SETUP: read-out: Pf-KRS pIC50 (converted)
PARAMETER_MEASURED: log10 of IC50 (log10 of the value in nM)

[[record]]
compound = "O=C(NCC1CCCCC1)c1cc(=O)c2cccc(O)c2o1 [Example 67]"
reported_measurement = 1.80

[[record]]
compound = "O=C(NCC1(O)CCC(F)(F)CC1)c1cc(=O)c2cc(F)cc(F)c2o1 [Example 56]"
reported_measurement = 2.50

[[record]]
compound = "O=C(NCC1CCCCC1)c1cc(=O)c2ccc(F)cc2o1 [Example 42]"
reported_measurement = 2.30

[[record]]
compound = "Nc1cc(F)cc2c(=O)cc(C(=O)NCC3CCCCC3)oc12 [Example 99]"
reported_measurement = 1.70

[[record]]
compound = "Cc1c(C(=O)NCC2CCCCC2)oc2ccc(F)cc2c1=O [Example 91]"
reported_measurement = 2.80

[[record]]
compound = "O=C(NCC1(O)CCCCC1)c1cc(=O)c2cc(O)ccc2o1 [Example 13]"
reported_measurement = 1.90

[[record]]
compound = "O=C(NCC1CC2CCC1C2)c1cc(=O)c2cc(F)ccc2o1 (stereo not drawn) [Example 36]"
reported_measurement = 2.10

[[record]]
compound = "O=C(NCC1(CO)CCCCC1)c1cc(=O)c2cc(F)ccc2o1 [Example 40]"
reported_measurement = 2.40

[[record]]
compound = "NC(=O)c1cccc2c(=O)cc(C(=O)NCC3CCCCC3)oc12 [Example 89]"
reported_measurement = 2.70

[[record]]
compound = "O=C(NCC1CCCC1)c1cc(=O)c2ccccc2o1 [Example 23]"
reported_measurement = 2.60

[[record]]
compound = "O=C(NCC1(O)CCCCC1)c1cc(=O)c2cc(Cl)cc(O)c2o1 [Example 73]"
reported_measurement = 1.70

[[record]]
compound = "O=C(NCC1CCCCC1)c1cc(=O)c2cccc(CO)c2o1 [Example 82]"
reported_measurement = 2.40

[[record]]
compound = "O=C(NCC1(O)CCCCC1)c1cc(=O)c2cc(Cl)ccc2o1 [Example 48]"
reported_measurement = 2.10

[[record]]
compound = "O=C(NCC1CCC1)c1cc(=O)c2cc(F)cc(O)c2o1 [Example 76E]"
reported_measurement = 2.40

[[record]]
compound = "O=C(NCC1CCCCC1)c1cc(=O)c2ccc(F)c(O)c2o1 [Example 78]"
reported_measurement = 1.90

[[record]]
compound = "O=C(NCC1(O)CCCCC1)c1cc(=O)c2cc(F)ccc2o1 [Example 41]"
reported_measurement = 2.00

[[record]]
compound = "O=C(NCC1(O)CCCCC1)c1cc(=O)c2cc(O)cc(F)c2o1 [Example 81]"
reported_measurement = 2.30

[[record]]
compound = "O=C(NCC1(O)CCCCC1)c1cc(=O)c2cc(F)cc(F)c2o1 [Example 55]"
reported_measurement = 2.30

